biological target: T1, REGN2431 (hmm.hTfRC): monomeric human Tfrc ectodomain (C89-F760) with N-terminal hexahistidine-myc-myc tag (human, UniProt P02786 89-760); assay: SPR Biacore, IgG captured by anti-hFc, 25 C
T1 construct: also called hmm.hTfR(C89-F763); hTFR-mmh
T1 sequence (P02786 other isoform, or with tags, fused parts or gaps): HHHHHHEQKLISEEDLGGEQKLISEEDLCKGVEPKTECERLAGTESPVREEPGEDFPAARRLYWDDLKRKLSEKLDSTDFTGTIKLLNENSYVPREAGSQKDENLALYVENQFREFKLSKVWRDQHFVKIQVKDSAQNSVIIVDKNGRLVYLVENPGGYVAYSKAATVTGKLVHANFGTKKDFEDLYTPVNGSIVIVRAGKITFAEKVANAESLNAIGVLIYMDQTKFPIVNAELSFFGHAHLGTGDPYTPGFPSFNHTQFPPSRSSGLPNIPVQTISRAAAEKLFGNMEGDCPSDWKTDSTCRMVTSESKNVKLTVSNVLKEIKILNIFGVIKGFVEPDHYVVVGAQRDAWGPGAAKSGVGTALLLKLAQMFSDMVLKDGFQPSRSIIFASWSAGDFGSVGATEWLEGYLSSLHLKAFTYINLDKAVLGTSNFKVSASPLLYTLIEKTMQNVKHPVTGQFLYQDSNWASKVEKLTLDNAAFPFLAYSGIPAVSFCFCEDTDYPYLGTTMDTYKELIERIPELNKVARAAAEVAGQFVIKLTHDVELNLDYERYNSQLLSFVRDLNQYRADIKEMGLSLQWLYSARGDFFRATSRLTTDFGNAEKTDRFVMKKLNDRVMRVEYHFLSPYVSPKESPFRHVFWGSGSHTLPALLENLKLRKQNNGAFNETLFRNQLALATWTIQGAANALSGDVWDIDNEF
Test readout: t1/2 (h)
The response must be a number in h with no trailing unit.

stdin: Quick check: t1/2 of 12801B anti-hTfR monoclonal antibody (bivalent IgG1) (antibody, V domains shown, hIgG1/kappa) VH: EVQLLESGGALVQPGGSLRLSCAASGFTFTSYAMHWVRQAPGKGLEWVSSIRGSGGGTYSADSVKGRFTISRDNSRDTLYLQMNSVRAEDTAVYYCARSHDYGAFDFFDYWGQGTLVTVSS VL: DIQMTQSPSSLSASVGDRVTITCRASQGIRTDLGWYQQKPGKAPKRLIYAASSLQSGVPSRFSGSGSGTEFTLTISSLRPEDFATFYCLQYNSYPLTFGGGTKVEIKR ?
stdout: 4.6

Sourced from patent US20260034230A1
